Origin of measurements: paper PMC6044503

target: human Y2R (Homo sapiens, UniProt P49146); test: biochemical
Sequence (P49146 whole entry): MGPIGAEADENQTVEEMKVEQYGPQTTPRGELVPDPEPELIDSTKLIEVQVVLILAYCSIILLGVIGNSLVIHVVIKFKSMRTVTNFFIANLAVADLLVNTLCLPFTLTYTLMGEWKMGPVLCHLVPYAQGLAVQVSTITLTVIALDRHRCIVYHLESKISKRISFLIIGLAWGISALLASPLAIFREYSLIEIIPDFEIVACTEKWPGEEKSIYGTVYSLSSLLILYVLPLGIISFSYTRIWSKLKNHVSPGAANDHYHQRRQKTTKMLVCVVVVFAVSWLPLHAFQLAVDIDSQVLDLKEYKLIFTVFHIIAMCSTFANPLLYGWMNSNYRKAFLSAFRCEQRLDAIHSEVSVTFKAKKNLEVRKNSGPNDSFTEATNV
pEC50: −log10 of the molar value. Where a SMILES comes first, the peptide text is derived from it. [ ]: non-standard residue; d: D form. The star is where a group is joined. Cyclohexanecarbonyl = O=C(C1CCCCC1)*; 1Naphthoyl = O=C(c1cccc2ccccc12)*; 2Naphthoyl = O=C(c1ccc2ccccc2c1)*; Cha = N[C@@H](CC1CCCCC1)C(=O)O; Nle = CCCC[C@H](N)C(=O)O; Aib = CC(C)(N)C(=O)O; Bz = O=C(c1ccccc1)*
Measured pEC50, listed per entry for reference.
Quantity measured: pEC50

compound="CC[C@H](C)[C@H](NC(=O)[C@H](CC1CCCCC1)NC(=O)[C@H](Cc1c[nH]cn1)NC(=O)[C@H](CCCNC(=N)N)NC(=O)c1ccccc1)C(=O)N[C@@H](CC(N)=O)C(=O)N[C@@H](Cc1c[nH]c2ccccc12)C(=O)N[C@H](C(=O)N[C@H](C(=O)N[C@@H](CCCNC(=N)N)C(=O)N[C@@H](CCC(N)=O)C(=O)N[C@@H](CCCNC(=N)N)C(=O)N[C@@H](CC1CCCCC1)C(N)=O)[C@@H](C)O)[C@@H](C)CC [Compound 5] (Bz-RH[Cha]INWITRQR[Cha]-NH2)" quantity_measured=pEC50 reading=8.64
compound="CC(C)C[C@H](NC(=O)[C@H](CC(N)=O)NC(=O)[C@H](CC1CCCCC1)NC(=O)[C@H](CC1CCCCC1)NC(=O)[C@H](Cc1c[nH]cn1)NC(=O)[C@H](CCCNC(=N)N)NC(=O)C1CCCCC1)C(=O)NC(C)(C)C(=O)N[C@H](C(=O)N[C@@H](CCCNC(=N)N)C(=O)N[C@@H](CCC(N)=O)C(=O)N[C@@H](CCCNC(=N)N)C(=O)N[C@@H](CC1CCCCC1)C(N)=O)[C@@H](C)O [Compound 22] (Cyclohexanecarbonyl-RH[Cha][Cha]NL[Aib]TRQR[Cha]-NH2)" quantity_measured=pEC50 reading=8.40
compound="CC[C@H](C)[C@H](NC(=O)[C@H](CC1CCCCC1)NC(=O)[C@H](Cc1c[nH]cn1)NC(=O)[C@H](CCCNC(=N)N)NC(=O)c1ccccc1)C(=O)N[C@@H](CC(N)=O)C(=O)N[C@@H](CC(C)C)C(=O)NC(C)(C)C(=O)N[C@H](C(=O)N[C@@H](CCCNC(=N)N)C(=O)N[C@@H](CCC(N)=O)C(=O)N[C@@H](CCCNC(=N)N)C(=O)N[C@@H](CC1CCCCC1)C(N)=O)[C@@H](C)O [Compound 10] (Bz-RH[Cha]INL[Aib]TRQR[Cha]-NH2)" quantity_measured=pEC50 reading=8.96
compound="CC(C)C[C@H](NC(=O)[C@H](CC(N)=O)NC(=O)[C@H](CC1CCCCC1)NC(=O)[C@H](CC1CCCCC1)NC(=O)[C@H](Cc1c[nH]cn1)NC(=O)[C@H](CCCNC(=N)N)NC(=O)c1ccc2ccccc2c1)C(=O)NC(C)(C)C(=O)N[C@H](C(=O)N[C@@H](CCCNC(=N)N)C(=O)N[C@@H](CCC(N)=O)C(=O)N[C@@H](CCCNC(=N)N)C(=O)N[C@@H](CC1CCCCC1)C(N)=O)[C@@H](C)O [Compound 26] (2Naphthoyl-RH[Cha][Cha]NL[Aib]TRQR[Cha]-NH2)" quantity_measured=pEC50 reading=8.22
compound="CC(C)C[C@H](NC(=O)[C@H](CC(N)=O)NC(=O)[C@H](Cc1c[nH]c2ccccc12)NC(=O)[C@H](CC1CCCCC1)NC(=O)[C@H](Cc1c[nH]cn1)NC(=O)[C@H](CCCNC(=N)N)NC(=O)c1ccccc1)C(=O)NC(C)(C)C(=O)N[C@H](C(=O)N[C@@H](CCCNC(=N)N)C(=O)N[C@@H](CCC(N)=O)C(=O)N[C@@H](CCCNC(=N)N)C(=O)N[C@@H](CC1CCCCC1)C(N)=O)[C@@H](C)O [Compound 18] (Bz-RH[Cha]WNL[Aib]TRQR[Cha]-NH2)" quantity_measured=pEC50 reading=8.80
compound="CC(C)C[C@H](NC(=O)[C@H](CC(N)=O)NC(=O)[C@H](CC1CCCCC1)NC(=O)[C@H](CC1CCCCC1)NC(=O)[C@H](Cc1c[nH]cn1)NC(=O)[C@H](CCCNC(=N)N)NC(=O)c1cccc2ccccc12)C(=O)NC(C)(C)C(=O)N[C@H](C(=O)N[C@@H](CCCNC(=N)N)C(=O)N[C@@H](CCC(N)=O)C(=O)N[C@@H](CCCNC(=N)N)C(=O)N[C@@H](CC1CCCCC1)C(N)=O)[C@@H](C)O [Compound 25] (1Naphthoyl-RH[Cha][Cha]NL[Aib]TRQR[Cha]-NH2)" quantity_measured=pEC50 reading=8.24
compound="CC[C@H](C)[C@H](NC(=O)[C@H](CC1CCCCC1)NC(=O)[C@H](Cc1c[nH]cn1)NC(=O)[C@H](CCCNC(=N)N)NC(=O)c1ccccc1)C(=O)N[C@@H](CC(N)=O)C(=O)N[C@@H](CC(C)C)C(=O)N[C@H](C(=O)N[C@H](C(=O)N[C@@H](CCCNC(=N)N)C(=O)N[C@@H](CCC(N)=O)C(=O)N[C@@H](CCCNC(=N)N)C(=O)N[C@@H](CC1CCCCC1)C(N)=O)[C@@H](C)O)[C@@H](C)CC [Compound 4] (Bz-RH[Cha]INLITRQR[Cha]-NH2)" quantity_measured=pEC50 reading=8.44
compound="CCCC[C@H](NC(=O)[C@H](CC(C)C)NC(=O)[C@H](CC(N)=O)NC(=O)[C@@H](NC(=O)[C@H](CC1CCCCC1)NC(=O)[C@H](Cc1c[nH]cn1)NC(=O)[C@H](CCCNC(=N)N)NC(=O)c1ccccc1)[C@@H](C)CC)C(=O)N[C@H](C(=O)N[C@@H](CCCNC(=N)N)C(=O)N[C@@H](CCC(N)=O)C(=O)N[C@@H](CCCNC(=N)N)C(=O)N[C@@H](CC1CCCCC1)C(N)=O)[C@@H](C)O [Compound 7] (Bz-RH[Cha]INL[Nle]TRQR[Cha]-NH2)" quantity_measured=pEC50 reading=8.62
compound="CC[C@H](C)[C@H](NC(=O)[C@H](Cc1ccc(O)cc1)NC(=O)[C@H](C)NC(=O)[C@H](CCCNC(=N)N)NC(=O)c1ccccc1)C(=O)N[C@@H](CC(N)=O)C(=O)N[C@@H](CC(C)C)C(=O)N[C@H](C(=O)N[C@H](C(=O)N[C@@H](CCCNC(=N)N)C(=O)N[C@@H](CCC(N)=O)C(=O)N[C@@H](CCCNC(=N)N)C(=O)N[C@@H](CC1CCCCC1)C(N)=O)[C@@H](C)O)[C@@H](C)CC [Compound 2] (Bz-RAYINLITRQR[Cha]-NH2)" quantity_measured=pEC50 reading=8.96

---

Measured % food intake inhibition, listed per entry for reference.
tested on: male C57BL/6J mice; assay: Food intake assay, bolus ip administration in lean mice; type: in vivo, mouse; conditions: bolus ip 2000 nmol/kg, 3 h after administration, vs saline, mean ± SD
Where a SMILES comes first, the peptide text is derived from it. [ ]: non-standard residue; d: D form. The star is where a group is joined. Cha = N[C@@H](CC1CCCCC1)C(=O)O; Aib = CC(C)(N)C(=O)O; Bz = O=C(c1ccccc1)*
Quantity measured: % food intake inhibition (%)

compound="CC[C@H](C)[C@H](NC(=O)[C@H](CC1CCCCC1)NC(=O)[C@H](Cc1c[nH]cn1)NC(=O)[C@H](CCCNC(=N)N)NC(=O)c1ccccc1)C(=O)N[C@@H](CC(N)=O)C(=O)N[C@@H](CC(C)C)C(=O)NC(C)(C)C(=O)N[C@H](C(=O)N[C@@H](CCCNC(=N)N)C(=O)N[C@@H](CCC(N)=O)C(=O)N[C@@H](CCCNC(=N)N)C(=O)N[C@@H](CC1CCCCC1)C(N)=O)[C@@H](C)O [Compound 10] (Bz-RH[Cha]INL[Aib]TRQR[Cha]-NH2)" quantity_measured="% food intake inhibition" reading=60
compound="CC[C@H](C)[C@H](NC(=O)[C@H](CC1CCCCC1)NC(=O)[C@H](Cc1c[nH]cn1)NC(=O)[C@H](CCCNC(=N)N)NC(=O)c1ccccc1)C(=O)N[C@@H](CC(N)=O)C(=O)N[C@@H](Cc1c[nH]c2ccccc12)C(=O)N[C@H](C(=O)N[C@H](C(=O)N[C@@H](CCCNC(=N)N)C(=O)N[C@@H](CCC(N)=O)C(=O)N[C@@H](CCCNC(=N)N)C(=O)N[C@@H](CC1CCCCC1)C(N)=O)[C@@H](C)O)[C@@H](C)CC [Compound 5] (Bz-RH[Cha]INWITRQR[Cha]-NH2)" quantity_measured="% food intake inhibition" reading=65
